Measured values drawn from patent US20250382305A1 for this set.

- System: Total ATXN3 (tATXN3) protein
- experimentalDetails: Endogenous Total ATXN3 (tATXN3) Protein Assay (MSD immunoassay of cell lysates)
- Assay type: cell-based
- assayConditions: average IC50, total ATXN3 protein in cell lysate after 48 h with compound (Table 1)
pIC50: −log10 of the molar value.
Field: pIC50. Provide a value for each of the compounds that follow.

Example entries and their recorded answers appear below.
Memo: "N[C@H]1CCCO[C@@H]1c1sc2c(NCc3cccs3)cc(Cl)nc2c1Br" , reported pIC50: 6.00 to 6.52

Memo: "Cc1c([C@@H]2CC=CC[C@H]2N)sc2c(NCc3ccncc3F)nc(Cl)nc12" , reported pIC50: 6.52 to 7.52

Memo: "N[C@H]1CC=CC[C@@H]1c1c(Cl)c2nc(Cl)cc(NCc3ccccc3)c2n1C(F)F" , reported pIC50: 6.52 to 7.52

Memo: "N[C@@H]1CCCCCC[C@@H]1c1sc2c(NCc3cccs3)cc(Cl)nc2c1Cl" , reported pIC50: < 6.00

Memo: C#Cc1c([C@@H]2CCOC[C@H]2N)sc2c(NCc3ccco3)nc(Cl)nc12.C#Cc1c([C@H]2CCOC[C@@H]2N)sc2c(NCc3ccco3)nc(Cl)nc12 (mixture of isomers) , reported pIC50: 6.52 to 7.52

Would you mind listing pIC50 for each of the following compounds?
1. N[C@@H]1CCCN[C@H]1c1sc2c(NCc3cccs3)cc(Cl)nc2c1Br.N[C@H]1CCCN[C@@H]1c1sc2c(NCc3cccs3)cc(Cl)nc2c1Br (mixture of isomers)
2. N[C@H]1CC=CC[C@@H]1c1sc2c(NCc3cccs3)cc(Cl)nc2c1Br
3. Cc1c([C@@H]2CC=CC[C@H]2N)sc2c(NCc3nccs3)nc(Cl)nc12
4. CCc1c([C@H]2CCCC[C@@H]2N)sc2c(NCc3cccs3)cc(Cl)nc12 (single isomer, unassigned)
5. N[C@@H]1CC=CC[C@H]1c1sc2c(NCc3cccs3)cc(Cl)nc2c1Cl.N[C@H]1CC=CC[C@@H]1c1sc2c(NCc3cccs3)cc(Cl)nc2c1Cl (mixture of isomers)
6. N[C@H]1CCC[C@@H]1c1cc2nc(Cl)cc(NCc3cccs3)c2s1
7. Cc1c([C@@H]2CCCCCC[C@H]2N)sc2c(NCc3cccs3)cc(Cl)nc12

## Result
["< 6.00", "≥ 7.52", "6.52 to 7.52", "6.52 to 7.52", "≥ 7.52", "6.00 to 6.52", "< 6.00"]

Would you mind listing pIC50 for each of the following compounds?
1. C#Cc1c([C@H]2CCCC[C@@H]2N)sc2c(NCc3ccccc3F)cc(Cl)nc12
2. N[C@@H]1CCCC(F)(F)[C@H]1c1sc2c(NCc3ccco3)nc(Cl)nc2c1Br
3. N[C@H]1CCC(=O)C[C@@H]1c1sc2c(NCc3ccco3)cc(Cl)nc2c1Cl
4. N[C@H]1CCOC[C@@H]1c1sc2c(NCc3ccccc3)cc(Cl)nc2c1Cl
5. Cc1c([C@H]2CCCCCC[C@H]2N)sc2c(NCc3cccs3)cc(Cl)nc12
6. N[C@@H]1CC=CC[C@H]1c1sc2c(NCc3ccncc3F)nc(Cl)nc2c1Cl
7. N[C@@H]1CCC[C@H]1c1sc2c(NCc3cccs3)cc(Cl)nc2c1Cl

## Result
["6.52 to 7.52", "6.00 to 6.52", "≥ 7.52", "≥ 7.52", "< 6.00", "6.00 to 6.52", "< 6.00"]
